Target: human glutathione S-transferase A1-1 (GSTA1-1) (Homo sapiens, UniProt P08263)
Construct: made in house; host or cells: E. coli
Sequence (P08263 whole entry): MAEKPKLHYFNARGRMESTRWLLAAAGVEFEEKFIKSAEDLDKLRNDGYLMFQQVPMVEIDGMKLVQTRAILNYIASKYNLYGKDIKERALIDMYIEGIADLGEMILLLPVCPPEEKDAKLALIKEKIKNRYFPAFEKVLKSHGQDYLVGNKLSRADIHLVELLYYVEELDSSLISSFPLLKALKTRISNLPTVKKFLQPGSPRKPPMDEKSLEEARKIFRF
Test: CDNB assay of GST activity and inhibition, GST A1-1
Type: biochemical
Conditions: second value of the cell GSTP1-1/GSTA1-1, 20 nM GST
pIC50: −log10 of the molar value.
experimental_readout: pIC50

>  <compound>
CCC(CSCC(NC(=O)CCC(N)C(=O)O)C(=O)NCC(=O)O)C(=O)c1ccc(OCC(=O)NCCCC(=O)NCc2cc(CNC(=O)CCCNC(=O)COc3ccc(C(=O)C(CC)CSCC(NC(=O)CCC(N)C(=O)O)C(=O)NCC(=O)O)c(Cl)c3Cl)cc(C(N)=O)c2)c(Cl)c1Cl (stereo not shown)

>  <pIC50>
8.42

$$$$

[1] NC(CCC(=O)NC(CSCCCCCCCCCCCOC(=O)CCCCCCCSCC(NC(=O)CCC(N)C(=O)O)C(=O)NCC(=O)O)C(=O)NCC(=O)O)C(=O)O (stereo not shown)
[2] NC(CCC(=O)NC(CSc1ccc(C(=O)OCCOCCOCCOCCOC(=O)c2ccc(SCC(NC(=O)CCC(N)C(=O)O)C(=O)NCC(=O)O)c([N+](=O)[O-])c2)cc1[N+](=O)[O-])C(=O)NCC(=O)O)C(=O)O (stereo not shown)
Exercise: Between 1 and 2 , whose measured pIC50 reads higher? State the label of the item chosen.
Key: 1
